The reported measurements were obtained from paper PMC8878107.

tested on: EV-A71; assay: Inhibition of EV-A71-induced cytopathogenicity, MTT method; assay type: cell-based, human enterovirus A71; settings: Enterovirus A, EVA71, 96 h, 50% protection of Vero-76 cells from EV-A71-induced cytopathogenicity, day 4/5 p.i.
pEC50: −log10 of the molar value.
Recorded Metric: pEC50

Completed entries (count: 4):
                                   compound  recorded_metric  endpoint_result
0  CCOC(=O)c1ccc(SCc2ccc3nc(OC)c(OC)nc3c2)cc1 [Compound 6]            pEC50           < 4.00
1  CCOC(=O)c1ccc(SCc2ccc3nc(OC)c(OC)nc3c2)nc1 [Compound 8]            pEC50           < 4.00
2  COc1nc2ccc(CSc3ccc(C(=O)O)cc3)cc2nc1OC [Compound 7]            pEC50           < 4.00
3  COc1nc2ccc(CSc3ccc(C(=O)O)cn3)cc2nc1OC [Compound 9]            pEC50           < 4.00

Okay, now this compound:
Request: So what does the record say about pEC50 for C[C@@]1(O)[C@H](O)[C@@H](CO)O[C@H]1n1ccc(N)nc1=O [NM107, 2′-C-methylcytidine, reference compound] ?
Result: 5.22

====

Consider the following compounds; for each one, report its pEC50.
system: E9; assay: Plaque-reduction assay, E9 in LLC-MK2 cells; type: cell-based, human enterovirus B; details: Enterovirus B, concentration reducing plaque number by 50%
Give bare numbers, as −log10 of the molar value.

Completed entries (count: 2):
>>> df
                                   compound  recorded_metric  endpoint_result
0  Cc1cc(CCCOc2c(C)cc(-c3noc(C(F)(F)F)n3)cc2C)on1 [PLe, Pleconaril, reference compound]            pEC50             7.00
1    COc1nc2ccc(CSc3ccc(C(=O)O)cn3)cc2nc1OC            pEC50             4.26

Okay, now this compound:
Request: Hi! What's the reported pEC50 for CCOC(=O)c1ccc(SCc2ccc3nc(OC)c(OC)nc3c2)nc1 on E9?
Result: 5.22

====

experiment: Cytotoxicity, MTT method, mock-infected HeLa cells; type: cell-based; settings: human, concentration reducing viability of mock-infected HeLa cells by 50%
Recorded Metric: CC50

Completed entries (count: 4):
In [3]: df
Out[3]:
                                   compound  recorded_metric  endpoint_result
0  Cc1cc(CCCOc2c(C)cc(-c3noc(C(F)(F)F)n3)cc2C)on1 [PLe, Pleconaril, reference compound]             CC50         > 100 µM
1  CCOC(=O)c1ccc(SCc2ccc3nc(OC)c(OC)nc3c2)cc1             CC50         > 100 µM
2    COc1nc2ccc(CSc3ccc(C(=O)O)cn3)cc2nc1OC             CC50         > 100 µM
3    COc1nc2ccc(CSc3ccc(C(=O)O)cc3)cc2nc1OC             CC50            95 µM

Request: So what does the record say about CC50 for CCOC(=O)c1ccc(SCc2ccc3nc(OC)c(OC)nc3c2)nc1 ?
Result: > 100 µM

====

assay: Cytotoxicity, MTT method, mock-infected LLC-MK2 cells; format: cell-based; conditions: rhesus monkey, concentration reducing viability of mock-infected LLC-MK2 cells by 50%
Consider the following molecules; for each one, report its CC50.
Answers are plain numbers, in µM.

>>> df
                                   molecule  recorded_metric  measure_unit  endpoint_result
0  COc1nc2ccc(CSc3ccc(C(=O)O)cc3)cc2nc1OC [Compound 7]             CC50            µM              100

Okay, now this molecule:
Request: So what does the record say about CC50 for COc1nc2ccc(CSc3ccc(C(=O)O)cn3)cc2nc1OC [Compound 9] ?
Result: 100

====

test system: CVB3; experiment: Plaque-reduction assay, CVB3 in Vero-76 cells; type: cell-based, human enterovirus B; conditions: Enterovirus B, CVB3, Vero 76, concentration reducing plaque number by 50%
Recorded Metric: EC50 (µM)
Numbers only, in µM.

>>> df
                                 compound  measure_unit  endpoint_result
0  COc1nc2ccc(CSc3ccc(C(=O)O)cn3)cc2nc1OC            µM              100

Okay, now this compound:
Request: So what does the record say about EC50 for C[C@@]1(O)[C@H](O)[C@@H](CO)O[C@H]1n1ccc(N)nc1=O [NM107, 2′-C-methylcytidine, reference compound] ?
Result: 29

====

Consider the following compounds; for each one, report its CC50.
test: Cytotoxicity, MTT method, mock-infected Vero-76 cells; format: cell-based; conditions: African green monkey (Cercopithecus aethiops), concentration reducing viability of mock-infected Vero-76 cells by 50%, read-out: CC50 Vero76

Completed entries (count: 3):
                                   compound  endpoint_result
0  CCOC(=O)c1ccc(SCc2ccc3nc(OC)c(OC)nc3c2)nc1         > 100 µM
1  CCOC(=O)c1ccc(SCc2ccc3nc(OC)c(OC)nc3c2)cc1         > 100 µM
2    COc1nc2ccc(CSc3ccc(C(=O)O)cc3)cc2nc1OC           100 µM

Please give CC50 for each item listed below.
1. Cc1cc(CCCOc2c(C)cc(-c3noc(C(F)(F)F)n3)cc2C)on1 [PLe, Pleconaril, reference compound]
2. COc1nc2ccc(CSc3ccc(C(=O)O)cn3)cc2nc1OC
3. C[C@@]1(O)[C@H](O)[C@@H](CO)O[C@H]1n1ccc(N)nc1=O [NM107, 2′-C-methylcytidine, reference compound]

Result:
1: > 100 µM; 2: 100 µM; 3: > 100 µM

====

test system: CVB3; assay: Plaque-reduction assay, CVB3 in Vero-76 cells; format: cell-based, human enterovirus B; conditions: concentration reducing plaque number by 50%
Recorded Metric: pEC50
Answers are plain numbers, as −log10 of the molar value.

In [3]: df
Out[3]:
                                   molecule  endpoint_result
0  COc1nc2ccc(CSc3ccc(C(=O)O)cc3)cc2nc1OC [Compound 7]             5.70

Okay, now this molecule:
Request: So what does the record say about pEC50 for CCOC(=O)c1ccc(SCc2ccc3nc(OC)c(OC)nc3c2)cc1 [Compound 6] ?
Result: 5.60

====

Consider the following compounds; for each one, report its CC50.
experiment: Cytotoxicity, MTT method, mock-infected LLC-MK2 cells; type: cell-based; conditions: rhesus monkey, concentration reducing viability of mock-infected LLC-MK2 cells by 50%

                                   compound  endpoint_result
0  Cc1cc(CCCOc2c(C)cc(-c3noc(C(F)(F)F)n3)cc2C)on1 [PLe, Pleconaril, reference compound]         > 100 µM

Please give CC50 for each item listed below.
1. CCOC(=O)c1ccc(SCc2ccc3nc(OC)c(OC)nc3c2)cc1
2. CCOC(=O)c1ccc(SCc2ccc3nc(OC)c(OC)nc3c2)nc1

Result:
> 100 µM
> 100 µM

====

Consider the following molecules; for each one, report its EC50.
tested on: CVB3; assay: Plaque-reduction assay, CVB3 in Vero-76 cells; format: cell-based, human enterovirus B; settings: Enterovirus B, CVB3, Vero 76, concentration reducing plaque number by 50%

Completed entries (count: 2):
                                   molecule  endpoint_result
0  CCOC(=O)c1ccc(SCc2ccc3nc(OC)c(OC)nc3c2)nc1 [Compound 8]      > 100000 nM
1  CCOC(=O)c1ccc(SCc2ccc3nc(OC)c(OC)nc3c2)cc1 [Compound 6]  2000 to 3000 nM

Request: So what does the record say about EC50 for COc1nc2ccc(CSc3ccc(C(=O)O)cc3)cc2nc1OC [Compound 7] ?
Result: 2000 to 3000 nM
